// provenance: BindingDB's records for doi:10.3109/14756366.2012.723206

# Test target: Tyrosine-protein phosphatase non-receptor type 1 (Homo sapiens, UniProt P18031)
# Sequence (P18031 whole entry): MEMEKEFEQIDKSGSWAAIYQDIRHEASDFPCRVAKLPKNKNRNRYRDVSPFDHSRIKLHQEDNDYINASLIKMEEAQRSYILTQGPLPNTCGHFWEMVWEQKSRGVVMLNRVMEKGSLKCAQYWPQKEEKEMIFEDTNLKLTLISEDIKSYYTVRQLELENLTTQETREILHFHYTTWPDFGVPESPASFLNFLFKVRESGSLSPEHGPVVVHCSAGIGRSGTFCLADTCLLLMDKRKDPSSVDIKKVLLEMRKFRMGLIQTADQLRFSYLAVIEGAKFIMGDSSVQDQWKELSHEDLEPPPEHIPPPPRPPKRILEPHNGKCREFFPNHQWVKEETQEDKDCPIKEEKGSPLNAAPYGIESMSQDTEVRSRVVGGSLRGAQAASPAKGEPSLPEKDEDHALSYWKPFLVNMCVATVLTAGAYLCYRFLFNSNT
pIC50: −log10 of the molar value.
Assay endpoint: pIC50

- Compound: "O=C1CC(c2ccc(Cl)cc2)Oc2cc(O)cc(O)c21 (centres undefined)"
  Test target: "Tyrosine-protein phosphatase non-receptor type 1 (Homo sapiens, UniProt P18031)"
  pIC50: 5.44
- Compound: "O=C1CC(c2ccccc2Br)Oc2cc(O)cc(O)c21 (centres undefined)"
  Test target: "Tyrosine-protein phosphatase non-receptor type 1 (Homo sapiens, UniProt P18031)"
  pIC50: 5.31
- Compound: "O=C1CC(c2ccc(Br)cc2)Oc2cc(O)cc(O)c21 (centres undefined)"
  Test target: "Tyrosine-protein phosphatase non-receptor type 1 (Homo sapiens, UniProt P18031)"
  pIC50: 5.46
- Compound: "O=C1CC(c2ccccc2F)Oc2cc(O)cc(O)c21 (centres undefined)"
  Test target: "Tyrosine-protein phosphatase non-receptor type 1 (Homo sapiens, UniProt P18031)"
  pIC50: 5.04
- Compound: "O=C1CC(c2ccc(F)cc2)Oc2cc(O)cc(O)c21 (centres undefined)"
  Test target: "Tyrosine-protein phosphatase non-receptor type 1 (Homo sapiens, UniProt P18031)"
  pIC50: 5.58
- Compound: "O=C1CC(c2cccc(C(F)(F)F)c2)Oc2cc(O)cc(O)c21 (centres undefined)"
  Test target: "Tyrosine-protein phosphatase non-receptor type 1 (Homo sapiens, UniProt P18031)"
  pIC50: 5.63
- Compound: "O=C1CC(c2ccc(Cl)cc2Cl)Oc2cc(O)cc(O)c21 (centres undefined)"
  Test target: "Tyrosine-protein phosphatase non-receptor type 1 (Homo sapiens, UniProt P18031)"
  pIC50: 5.62

(A) O=C1CC(c2cccc(Cl)c2)Oc2cc(O)cc(O)c21 (centres undefined)
(B) O=C1CC(c2ccccc2Cl)Oc2cc(O)cc(O)c21 (centres undefined)
INPUT: I'm curious, which of these has a smaller pIC50 number: A or B ? Mark your answer with the label of the selected entry.
OUTPUT: B
